System: DLD-1
Assay: NCI tumour cell line growth inhibition, 48 h
Active and inactive are the calls of the source. Cut-off read from the data, not from the text of the source: active = GI50 up to about 1.1 µM and inactive = higher.
property.measured: GI50

Guide cases for GI50, answers given:
1) COc1ccc(NC(=O)CC(=O)N/N=C(\C)c2cc3ccccc3oc2=O)cc1: > 100 µM (inactive)
2) C=CCc1ccc(O)c(-c2cc(C3Oc4c(-c5cc(CC=C)ccc5O)cc(O)cc4[C@@H]3CO)ccc2O)c1 (some centres undefined): 18 µM (inactive)
3) CN(C)/N=N/c1cccc(C(N)=O)c1: > 100 µM (inactive)
4) N#CCC(=O)N/N=C(/C(=O)Nc1ccccc1)C1C(=O)N(c2ccccc2)N=C1N (centres undefined): > 100 µM (inactive)

Could you share which GI50 value was measured for CCCCCCCCCCCCCCCC(=O)NCC(COP(=O)([O-])OCC[N+](C)(C)C)OCC (centres undefined) ?
5.19 µM (inactive)

Next: O=C1CC2CCN(C(=O)c3ccccc3)CC2CCN1.O=C1CCC2CC(C(=O)c3ccccc3)CCC2CN1 (centres undefined)
> 100 µM (inactive)

Next: CCOC(=O)c1s/c(=N\Nc2nc3ccccc3cc2C2OCCO2)n(Cc2ccccc2)c1C
> 100 µM (inactive)

Next: O=c1c2ccccc2nc(-c2ccccc2Cl)n1NC1OC(CO)C(O)C(O)C1O (centres undefined)
> 100 µM (inactive)

Next: C/C(CN1C(=O)c2ccccc2C1=O)=N\NS(=O)(=O)c1cccc(C(=O)O)c1
> 100 µM (inactive)

Data origin: ChEMBL document CHEMBL1201862
